- Assayed system: rat MCH-1R (Rattus norvegicus, UniProt P97639)
- Sequence (P97639 whole entry): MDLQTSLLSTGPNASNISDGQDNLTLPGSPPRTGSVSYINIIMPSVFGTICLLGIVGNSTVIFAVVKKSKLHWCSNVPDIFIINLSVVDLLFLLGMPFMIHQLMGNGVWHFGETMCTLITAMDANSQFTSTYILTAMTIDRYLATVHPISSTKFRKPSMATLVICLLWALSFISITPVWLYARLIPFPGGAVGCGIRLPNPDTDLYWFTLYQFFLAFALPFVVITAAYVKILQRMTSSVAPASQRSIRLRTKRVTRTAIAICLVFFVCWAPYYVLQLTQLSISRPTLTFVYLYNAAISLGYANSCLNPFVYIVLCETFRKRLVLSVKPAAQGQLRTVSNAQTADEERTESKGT
- Experiment summary: Aequorin bioluminescence functional assay, MCH-1R agonist activity
- Reported conditions: 293-AEQ17 cells expressing rat MCH-1R
Where a SMILES comes first, the peptide text is derived from it. Bridges are numbered along the chain shown (N, C = ends). [ ]: non-standard residue; d: D form. The star is where a group is joined. Pentanoyl(5-guanidino) = NC(N)=NCCCCC(=O)*; Nle = CCCC[C@H](N)C(=O)O; Ava = NCCCCC(=O)O
// MCH-1R Agonist Activation % lookup, one value per entry

# Compound, Assayed system, MCH-1R Agonist Activation %
rows = [
    ("CSCC[C@@H]1NC(=O)[C@@H](NC(=O)CCCCNC(=N)N)CSSC[C@@H](C(N)=O)NC(=O)CNC(=O)[C@H](Cc2ccc(O)cc2)NC(=O)[C@H](C(C)C)NC(=O)[C@H](CCCNC(=N)N)NC(=O)CCCCNC(=O)CCCCNC1=O [SEQ. ID. NO. 6] ({Pentanoyl(5-guanidino)}-CM[Ava][Ava]RVYGC-NH2; disulfide 1-9)", "rat MCH-1R (Rattus norvegicus, UniProt P97639)", "0.1%"),
    ("CSCC[C@@H]1NC(=O)[C@@H](NC(=O)[C@H](CCCNC(=N)N)NC(C)=O)CSSC[C@@H](C(N)=O)NC(=O)[C@@H]2CCCN2C(=O)[C@H](CCCNC(=N)N)NC(=O)[C@H](Cc2ccc(O)cc2)NC(=O)[C@H](C(C)C)NC(=O)[C@H](CCCNC(=N)N)NC(=O)CNC(=O)[C@H](CC(C)C)NC1=O [SEQ. ID. NO. 2]", "rat MCH-1R (Rattus norvegicus, UniProt P97639)", "99%"),
    ("CSCC[C@@H]1NC(=O)[C@@H](NC(=O)CCCCNC(=N)N)CSSC[C@@H](C(N)=O)NC(=O)CCNC(=O)CCNC(=O)[C@H](Cc2ccc(O)cc2)NC(=O)[C@H](C(C)C)NC(=O)[C@H](CCCNC(=N)N)NC(=O)CNC(=O)[C@H](CC(C)C)NC1=O [SEQ. ID. NO. 14]", "rat MCH-1R (Rattus norvegicus, UniProt P97639)", "3.6%"),
    ("CC(C)[C@@H]1NC(=O)[C@H](CCCNC(=N)N)NC(=O)CCCCNC(=O)CCCCNC(=O)CCCCNC(=O)[C@@H](NC(=O)CCCCNC(=N)N)CSSC[C@@H](C(N)=O)NC(=O)CCCCNC(=O)CCCCNC(=O)[C@H](Cc2ccc(O)cc2)NC1=O [SEQ. ID. NO. 36]", "rat MCH-1R (Rattus norvegicus, UniProt P97639)", "0.1%"),
    ("CCCC[C@@H]1NC(=O)[C@@H](NC(=O)CCCCNC(=N)N)CSSC[C@@H](C(=O)O)NC(=O)CCCCNC(=O)CCCCNC(=O)[C@H](Cc2ccc(O)cc2)NC(=O)[C@H](C)NC(=O)[C@H](CCCNC(=N)N)NC(=O)CCCCNC(=O)CCCCNC1=O [SEQ. ID. NO. 35] ({Pentanoyl(5-guanidino)}-C[Nle][Ava][Ava]RAY[Ava][Ava]C-OH; disulfide 1-10)", "rat MCH-1R (Rattus norvegicus, UniProt P97639)", "0.1%"),
    ("CSCC[C@@H]1NC(=O)[C@@H](NC(=O)CCCCNC(=N)N)CSSC[C@@H](C(N)=O)NC(=O)CCCCNC(=O)CCCCNC(=O)[C@H](Cc2ccc(O)cc2)NC(=O)[C@H](C(C)C)NC(=O)[C@H](CCCNC(=N)N)NC(=O)CNC1=O [SEQ. ID. NO. 23] ({Pentanoyl(5-guanidino)}-CMGRVY[Ava][Ava]C-NH2; disulfide 1-9)", "rat MCH-1R (Rattus norvegicus, UniProt P97639)", "0.1%"),
    ("CSCC[C@@H]1NC(=O)[C@H](NC(=O)[C@H](CCCNC(=N)N)NC(C)=O)CSSC[C@@H](C(N)=O)NC(=O)CCCCNC(=O)CCCCNC(=O)[C@H](Cc2ccc(O)cc2)NC(=O)[C@H](C(C)C)NC(=O)[C@H](CCCNC(=N)N)NC(=O)CNC(=O)[C@H](CC(C)C)NC1=O [SEQ. ID. NO. 24] (Ac-R[dC]MLGRVY[Ava][Ava]C-NH2; disulfide 2-11; C-terminus assumed)", "rat MCH-1R (Rattus norvegicus, UniProt P97639)", "3%"),
    ("CSCC[C@@H]1NC(=O)[C@@H](NC(=O)[C@H](CCCNC(=N)N)NC(C)=O)CSSC[C@@H](C(N)=O)NC(=O)CCCCNC(=O)CCCCNC(=O)[C@H](Cc2ccc(O)cc2)NC(=O)[C@H](C(C)C)NC(=O)[C@H](CCCNC(=N)N)NC(=O)CCCCNC(=O)CCCCNC1=O [SEQ. ID. NO. 30] (Ac-RCM[Ava][Ava]RVY[Ava][Ava]C-NH2; disulfide 2-11 (inferred); C-terminus assumed)", "rat MCH-1R (Rattus norvegicus, UniProt P97639)", "3%"),
    ("C[C@@H]1NC(=O)[C@@H](NC(=O)CCCCNC(=N)N)CSSC[C@@H](C(=O)O)NC(=O)CCCCNC(=O)CCCCNC(=O)[C@H](Cc2ccc(O)cc2)NC(=O)[C@H](C)NC(=O)[C@H](CCCNC(=N)N)NC(=O)CCCCNC(=O)CCCCNC1=O [SEQ. ID. NO. 34] ({Pentanoyl(5-guanidino)}-CA[Ava][Ava]RAY[Ava][Ava]C-OH; disulfide 1-10)", "rat MCH-1R (Rattus norvegicus, UniProt P97639)", "0.1%"),
    ("CSCC[C@@H]1NC(=O)[C@@H](NC(=O)[C@@H](CCCNC(=N)N)NC(C)=O)CSSC[C@@H](C(N)=O)NC(=O)CCCCNC(=O)CCCCNC(=O)[C@H](Cc2ccc(O)cc2)NC(=O)[C@H](C(C)C)NC(=O)[C@H](CCCNC(=N)N)NC(=O)CCCCNC(=O)CCCCNC1=O [SEQ. ID. NO. 33] (Ac-[dR]CM[Ava][Ava]RVY[Ava][Ava]C-NH2; disulfide 2-11 (inferred); C-terminus assumed)", "rat MCH-1R (Rattus norvegicus, UniProt P97639)", "2%"),
    ("CSCC[C@@H]1NC(=O)[C@@H](NC(=O)[C@H](CCCNC(=N)N)NC(C)=O)CSSC[C@@H](C(N)=O)NC(=O)[C@@H]2CCCN2C(=O)[C@H](CCCNC(=N)N)NC(=O)[C@H](Cc2ccc(O)cc2)NC(=O)[C@H](C(C)C)NC(=O)[C@H](CCCNC(=N)N)NC(=O)CCCCNC(=O)CCCCNC1=O [SEQ. ID. NO. 3] (Ac-RCM[Ava][Ava]RVYRPC-NH2; disulfide 2-11; C-terminus assumed)", "rat MCH-1R (Rattus norvegicus, UniProt P97639)", "82%"),
]
